Values were extracted from patent US11415579B2.

Consider the following compounds; for each one, report its k(Cdk2)/k(GSH) rate enhancement.
- target-system: human cyclin-dependent kinase 2 (Cdk2) (Homo sapiens)
- Construct: poly-histidine; made in house; host or cells: E. coli
- assay-method-text: Kinetic thiol consumption assay with wild type Cdk2 (C177)
- Type: binding
- study-conditions: model thiol glutathione
Give bare numbers.

Batch request: k(Cdk2)/k(GSH) rate enhancement per item, same order as input.
1. C=CC(=O)N1CCN(C(=O)OC(C)(C)C)CC1
2. C=CC(=O)N1CC(CCN2CCCC2=O)c2ccccc21 (centres unmarked)
3. C=CC(=O)NC1C2C3CCC(C3)C12 (centres unmarked)
4. C=CC(=O)Nc1ccccc1-c1ccccc1

(A)
0.5196
4.414
0.2854
0.6204
